Recorded MMP measured by Rhodamine 123 at 10XCmax for the following molecules
System: isolated rat liver mitochondria
TEST DESCRIPTION: Mitochondrial inner membrane potential (MMP), Rhodamine 123
Type: biochemical
EXPERIMENTAL CONTEXT: 10XCmax; difference in signal between KI and DMSO treated samples at the end of experiments
Please respond with just the number, no unit label.

Worked set:
>  <MOLECULE>
C=CC(=O)Nc1cc(Nc2nccc(-c3cn(C)c4ccccc34)n2)c(OC)cc1N(C)CCN(C)C.CS(=O)(=O)O [osimertinib mesylate]

>  <MMP measured by Rhodamine 123 at 10XCmax>
0

$$$$
>  <MOLECULE>
CC(=O)c1c(C)c2cnc(Nc3ccc(N4CCNCC4)cn3)nc2n(C2CCCC2)c1=O.Cl [palbociclib hydrochloride]

>  <MMP measured by Rhodamine 123 at 10XCmax>
0

$$$$
>  <MOLECULE>
Cc1nc(Nc2ncc(C(=O)Nc3c(C)cccc3Cl)s2)cc(N2CCN(CCO)CC2)n1 [dasatinib (free base)]

>  <MMP measured by Rhodamine 123 at 10XCmax>
0

$$$$
>  <MOLECULE>
CCN(CC)CCNC(=O)c1c(C)[nH]c(/C=C2\C(=O)Nc3ccc(F)cc32)c1C [sunitinib malate]

>  <MMP measured by Rhodamine 123 at 10XCmax>
0

$$$$

Given CC[C@H](Nc1ncnc2[nH]cnc12)c1nc2cccc(F)c2c(=O)n1-c1ccccc1 , state its recorded MMP measured by Rhodamine 123 at 10XCmax.
0

Can you handle CN(C)C/C=C/C(=O)Nc1cc2c(Nc3ccc(F)c(Cl)c3)ncnc2cc1O[C@H]1CCOC1 [afatinib dimaleate] next?
0

Can you handle CCCS(=O)(=O)Nc1ccc(F)c(C(=O)c2c[nH]c3ncc(-c4ccc(Cl)cc4)cc23)c1F next?
0

----------
STUDY SYSTEM: RCC II (Rattus norvegicus, UniProt P21913+Q641Z9+Q6PCT8+Q920L2)
Construct: Submitochondrial particles were prepared by subjecting the intact mitochondria to three successive freeze–thaw cycles; from tissue; host or cells: rat liver mitochondria, used as submitochondrial particles
Sequence (Q920L2 35-656): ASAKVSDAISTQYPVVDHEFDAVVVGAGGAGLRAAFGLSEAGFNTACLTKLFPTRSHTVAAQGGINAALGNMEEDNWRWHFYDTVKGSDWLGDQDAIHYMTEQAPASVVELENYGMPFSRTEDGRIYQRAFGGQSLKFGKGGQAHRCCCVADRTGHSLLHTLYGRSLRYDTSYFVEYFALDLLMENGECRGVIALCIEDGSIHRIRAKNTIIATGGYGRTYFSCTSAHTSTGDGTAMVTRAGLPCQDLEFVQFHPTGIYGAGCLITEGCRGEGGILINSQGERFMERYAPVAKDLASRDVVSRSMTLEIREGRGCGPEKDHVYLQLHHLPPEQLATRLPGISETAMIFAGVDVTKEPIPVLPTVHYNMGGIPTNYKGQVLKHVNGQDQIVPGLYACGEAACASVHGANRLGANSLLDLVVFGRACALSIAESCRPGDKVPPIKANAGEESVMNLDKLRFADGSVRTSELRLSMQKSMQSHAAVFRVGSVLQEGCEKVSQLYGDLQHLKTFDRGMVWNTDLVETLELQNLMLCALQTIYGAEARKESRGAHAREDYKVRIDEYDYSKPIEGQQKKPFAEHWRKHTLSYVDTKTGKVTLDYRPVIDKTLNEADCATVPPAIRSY
Sequence (P21913 31-282): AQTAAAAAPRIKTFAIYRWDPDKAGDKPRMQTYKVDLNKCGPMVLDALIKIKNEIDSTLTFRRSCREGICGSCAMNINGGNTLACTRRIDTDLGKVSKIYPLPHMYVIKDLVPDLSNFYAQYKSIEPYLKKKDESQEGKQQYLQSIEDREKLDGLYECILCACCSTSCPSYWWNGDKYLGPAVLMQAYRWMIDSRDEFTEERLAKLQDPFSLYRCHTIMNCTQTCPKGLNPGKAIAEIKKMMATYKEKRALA
Sequence (Q641Z9 1-169): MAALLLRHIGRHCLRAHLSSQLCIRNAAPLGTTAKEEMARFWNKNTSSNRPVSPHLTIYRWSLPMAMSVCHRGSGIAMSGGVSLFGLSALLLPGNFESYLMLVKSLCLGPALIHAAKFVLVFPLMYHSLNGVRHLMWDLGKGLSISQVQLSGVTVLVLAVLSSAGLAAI
Sequence (Q6PCT8 57-159): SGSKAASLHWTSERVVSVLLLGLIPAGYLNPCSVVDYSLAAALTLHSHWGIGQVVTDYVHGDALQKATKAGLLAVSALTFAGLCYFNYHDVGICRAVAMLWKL
TEST DESCRIPTION: RCC II activity in submitochondrial particles
Assay type: biochemical
Parameters: key: activity relative to DMSO-treated controls (control set as 1 = 100%)
EXPERIMENTAL CONTEXT: 5XCmax; relative to DMSO treated samples
Where a name gives a salt, the structure may show the parent alone.
TEST READOUT: RCC II at 5XCmax

Worked set:
>  <COMPOUND>
Cc1nc(Nc2ncc(C(=O)Nc3c(C)cccc3Cl)s2)cc(N2CCN(CCO)CC2)n1 [dasatinib (free base)]

>  <STUDY SYSTEM>
RCC II (Rattus norvegicus, UniProt P21913+Q641Z9+Q6PCT8+Q920L2)

>  <TEST READOUT>
RCC II at 5XCmax

>  <OBSERVED>
0

$$$$
>  <COMPOUND>
COc1cc(Nc2c(C#N)cnc3cc(OCCCN4CCN(C)CC4)c(OC)cc23)c(Cl)cc1Cl

>  <STUDY SYSTEM>
RCC II (Rattus norvegicus, UniProt P21913+Q641Z9+Q6PCT8+Q920L2)

>  <TEST READOUT>
RCC II at 5XCmax

>  <OBSERVED>
0

$$$$

Given CNC(=O)c1cc(Oc2ccc(NC(=O)Nc3ccc(Cl)c(C(F)(F)F)c3)cc2)ccn1 [sorafenib tosylate] , state its recorded RCC II at 5XCmax.
0
